# Tested on: 922993-354-T-J3-PDC complex spheroids, viability
# assay_overview: Anticancer human tumor 922993-354-T-J3-PDC patient-derived endometrial carcinoma cell line growth inhibition [GQUAD]
# reported_conditions: second compound 10 µM; first compound 1 µM; active compounds read low
For each of the compounds below, state its viability, T/C.

Please review the following examples before continuing.
| compound | measurement_target | viability, T/C |
| --- | --- | --- |
| COc1cccc2c1C(=O)c1c(O)c3c(c(O)c1C2=O)CC(O)(C(=O)CO)CC3OC1CC(N)C(O)C(C)O1 (stereo not drawn) + Cc1[nH]c2ccc(F)cc2c1-c1nc2c3cccnc3c3ncccc3c2[nH]1 | 922993-354-T-J3-PDC complex spheroids, viability | 98.4% |
| CC(C)n1c(=O)n(C)c2cnc3cc(F)c(-c4ccc(OCCCN5CCCCC5)nc4)cc3c21 + Cc1cnc(CNC(=O)c2c(=O)c3ccc(N4CCCN(C)CC4)nc3n3c2sc2ccccc23)cn1 | 922993-354-T-J3-PDC complex spheroids, viability | 42.1% |

Measured viability, T/C of CCCS(=O)(=O)Nc1ccc(F)c(C(=O)c2c[nH]c3ncc(-c4ccc(Cl)cc4)cc23)c1F + Cc1cnc(CNC(=O)c2c(=O)c3ccc(N4CCCN(C)CC4)nc3n3c2sc2ccccc23)cn1 : 35.9%

----------
# Tested on: 922993-354-T-J3-PDC complex spheroids, viability
# assay_overview: Anticancer human tumor 922993-354-T-J3-PDC cell line growth inhibition [GQUAD];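 note: spheroids exposed to compounds for seven days; 100% = DMSO vehicle control viability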
# reported_conditions: second compound 0.316 µM; first compound 10 µM; active compounds read low
reported_metric: viability, T/C

In the examples that follow, each entry is paired with its recorded viability, T/C.
| compound | viability, T/C |
| --- | --- |
| O=C(c1cc(Cc2n[nH]c(=O)c3ccccc23)ccc1F)N1CCN(C(=O)C2CC2)CC1 + Cc1cnc(CNC(=O)c2c(=O)c3ccc(N4CCCN(C)CC4)nc3n3c2sc2ccccc23)cn1 | 55.3% |
| CC1COCCN1c1cc(C2(O)CC3CCC(C2)O3)c2cnn(-c3ccn[nH]3)c2n1 (stereo not drawn) + CN(C)c1ccc(Nc2c3ccc(NC(=O)CCN4CCCC4)cc3nc3cc(NC(=O)CCN4CCCC4)ccc23)cc1 | 19.7% |

So for O=C(c1cc(Cc2n[nH]c(=O)c3ccccc23)ccc1F)N1CCN(C(=O)C2CC2)CC1 + Cc1[nH]c2ccc(F)cc2c1-c1nc2c3cccnc3c3ncccc3c2[nH]1 , the logged viability, T/C turned out to be 118%

----------
# Test system: 922993-354-T-J3-PDC complex spheroids, viability
# assay_overview: Anticancer human tumor 922993-354-T-J3-PDC cell line growth inhibition [GQUAD];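 note: spheroids exposed to compounds for seven days; 100% = DMSO vehicle control viability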
# reported_conditions: second compound 1 µM; first compound 0.000999 µM; active compounds read low
reported_metric: viability, T/C (%)
One number for each entry, in %.

As a guide, the following entries are already answered.
| compound | viability, T/C [%] |
| --- | --- |
| Cn1ncnc1[C@H]1c2n[nH]c(=O)c3cc(F)cc(c23)N[C@@H]1c1ccc(F)cc1 + CN(C)c1ccc(Nc2c3ccc(NC(=O)CCN4CCCC4)cc3nc3cc(NC(=O)CCN4CCCC4)ccc23)cc1 | 93.6 |
| Cn1ncnc1[C@H]1c2n[nH]c(=O)c3cc(F)cc(c23)N[C@@H]1c1ccc(F)cc1 + Cc1cnc(CNC(=O)c2c(=O)c3ccc(N4CCCN(C)CC4)nc3n3c2sc2ccccc23)cn1 | 49.2 |
| CC[C@@]1(O)C(=O)OCc2c1cc1n(c2=O)Cc2cc3c(CN(C)C)c(O)ccc3nc2-1 + CN(C)c1ccc(Nc2c3ccc(NC(=O)CCN4CCCC4)cc3nc3cc(NC(=O)CCN4CCCC4)ccc23)cc1 | 100 |
| CC[C@@]1(O)C(=O)OCc2c1cc1n(c2=O)Cc2cc3c(CN(C)C)c(O)ccc3nc2-1 + Cc1[nH]c2ccc(F)cc2c1-c1nc2c3cccnc3c3ncccc3c2[nH]1 | 97.1 |
| Cn1ncnc1[C@H]1c2n[nH]c(=O)c3cc(F)cc(c23)N[C@@H]1c1ccc(F)cc1 + Cc1[nH]c2ccc(F)cc2c1-c1nc2c3cccnc3c3ncccc3c2[nH]1 | 110 |

Each compound below has a reported value. Please supply its viability, T/C.
1. Cc1[nH]c2ccccc2c1CCNCc1ccc(/C=C/C(=O)NO)cc1 + Cc1[nH]c2ccc(F)cc2c1-c1nc2c3cccnc3c3ncccc3c2[nH]1
2. CCc1c2c(nc3ccc(O)cc13)-c1cc3c(c(=O)n1C2)COC(=O)[C@]3(O)CC + Cc1cnc(CNC(=O)c2c(=O)c3ccc(N4CCCN(C)CC4)nc3n3c2sc2ccccc23)cn1

Output line:
1: 96.3; 2: 48.7

Look at each compound and report its viability, T/C.
1. CCc1c2c(nc3ccc(O)cc13)-c1cc3c(c(=O)n1C2)COC(=O)[C@]3(O)CC + Cc1[nH]c2ccc(F)cc2c1-c1nc2c3cccnc3c3ncccc3c2[nH]1
2. CCc1c2c(nc3ccc(O)cc13)-c1cc3c(c(=O)n1C2)COC(=O)[C@]3(O)CC + CN(C)c1ccc(Nc2c3ccc(NC(=O)CCN4CCCC4)cc3nc3cc(NC(=O)CCN4CCCC4)ccc23)cc1
3. CC[C@@]1(O)C(=O)OCc2c1cc1n(c2=O)Cc2cc3c(CN(C)C)c(O)ccc3nc2-1 + Cc1cnc(CNC(=O)c2c(=O)c3ccc(N4CCCN(C)CC4)nc3n3c2sc2ccccc23)cn1
4. Cc1[nH]c2ccccc2c1CCNCc1ccc(/C=C/C(=O)NO)cc1 + CN(C)c1ccc(Nc2c3ccc(NC(=O)CCN4CCCC4)cc3nc3cc(NC(=O)CCN4CCCC4)ccc23)cc1
5. Cc1[nH]c2ccccc2c1CCNCc1ccc(/C=C/C(=O)NO)cc1 + Cc1cnc(CNC(=O)c2c(=O)c3ccc(N4CCCN(C)CC4)nc3n3c2sc2ccccc23)cn1

Output line:
1. 101
2. 96
3. 42.2
4. 70.3
5. 42.6

----------
For each entry below, report its viability, T/C value.
# Test system: 922993-354-T-J3-PDC complex spheroids, viability
# assay_overview: Anticancer human tumor 922993-354-T-J3-PDC cell line growth inhibition [GQUAD];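 note: spheroids exposed to compounds for seven days; 100% = DMSO vehicle control viability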
# reported_conditions: second compound 0.0316 µM; first compound 0.316 µM; active compounds read low

Previously resolved entries follow.
| molecule | viability, T/C |
| --- | --- |
| CC(C)(O)C1CCC(Nc2ccc3ncc(-c4cccc(C(F)(F)F)c4)n3n2)CC1 (stereo not drawn) + Cc1cnc(CNC(=O)c2c(=O)c3ccc(N4CCCN(C)CC4)nc3n3c2sc2ccccc23)cn1 | 67.9% |
| O=c1[nH]cc(F)c(=O)[nH]1 + Cc1cnc(CNC(=O)c2c(=O)c3ccc(N4CCCN(C)CC4)nc3n3c2sc2ccccc23)cn1 | 79.3% |

The reported viability, T/C of the molecule O=C(c1cc(Cc2n[nH]c(=O)c3ccccc23)ccc1F)N1CCN(C(=O)C2CC2)CC1 + CN(C)c1ccc(Nc2c3ccc(NC(=O)CCN4CCCC4)cc3nc3cc(NC(=O)CCN4CCCC4)ccc23)cc1 was 94.2%

----------
# Tested on: 922993-354-T-J3-PDC complex spheroids, viability
# assay_overview: Anticancer human tumor 922993-354-T-J3-PDC cell line growth inhibition [GQUAD];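 note: spheroids exposed to compounds for seven days; 100% = DMSO vehicle control viability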
# reported_conditions: second compound 10 µM; first compound 1 µM; active compounds read low
reported_metric: viability, T/C (%)
Answers are plain numbers, in %.

Field: example entries. Status: answers known.
| compound | measurement_target | viability, T/C, % |
| --- | --- | --- |
| COc1cc(C2c3cc4c(cc3C(OC3OC5COC(C)OC5C(O)C3O)C3COC(=O)C23)OCO4)cc(OC)c1O (stereo not drawn) + CN(C)c1ccc(Nc2c3ccc(NC(=O)CCN4CCCC4)cc3nc3cc(NC(=O)CCN4CCCC4)ccc23)cc1 | 922993-354-T-J3-PDC complex spheroids, viability | 79.3 |
| C=CC(=O)N1CCN(c2nc(=O)n(-c3c(C)ccnc3C(C)C)c3nc(-c4c(O)cccc4F)c(F)cc23)C(C)C1 (stereo not drawn) + CN(C)c1ccc(Nc2c3ccc(NC(=O)CCN4CCCC4)cc3nc3cc(NC(=O)CCN4CCCC4)ccc23)cc1 | 922993-354-T-J3-PDC complex spheroids, viability | 137 |
| CC1COCCN1c1cc(C2(O)CC3CCC(C2)O3)c2cnn(-c3ccn[nH]3)c2n1 (stereo not drawn) + CN(C)c1ccc(Nc2c3ccc(NC(=O)CCN4CCCC4)cc3nc3cc(NC(=O)CCN4CCCC4)ccc23)cc1 | 922993-354-T-J3-PDC complex spheroids, viability | 48.8 |
| Cc1cccc(N(C)C(=O)C2C(O)CCN2c2nc(C)cc(C(F)(F)F)c2C#N)c1 (stereo not drawn) + Cc1cnc(CNC(=O)c2c(=O)c3ccc(N4CCCN(C)CC4)nc3n3c2sc2ccccc23)cn1 | 922993-354-T-J3-PDC complex spheroids, viability | 39.1 |
| CC1COCCN1c1cc(C2(O)CC3CCC(C2)O3)c2cnn(-c3ccn[nH]3)c2n1 (stereo not drawn) + Cc1[nH]c2ccc(F)cc2c1-c1nc2c3cccnc3c3ncccc3c2[nH]1 | 922993-354-T-J3-PDC complex spheroids, viability | 37.6 |

For every item below, please supply its viability, T/C.
1. O=c1[nH]cc(F)c(=O)[nH]1 + Cc1[nH]c2ccc(F)cc2c1-c1nc2c3cccnc3c3ncccc3c2[nH]1
2. C=CC(=O)N1CCN(c2nc(=O)n(-c3c(C)ccnc3C(C)C)c3nc(-c4c(O)cccc4F)c(F)cc23)C(C)C1 (stereo not drawn) + Cc1[nH]c2ccc(F)cc2c1-c1nc2c3cccnc3c3ncccc3c2[nH]1
3. COc1ncnc(C2CC2)c1-c1ncc2cnn(Cc3ccc(-c4nc(C(F)(F)F)cn4C(C)C)cc3)c2n1 + CN(C)c1ccc(Nc2c3ccc(NC(=O)CCN4CCCC4)cc3nc3cc(NC(=O)CCN4CCCC4)ccc23)cc1
4. CC1COCCN1c1cc(C2(S(C)(=N)=O)CC2)nc(-c2ccnc3[nH]ccc23)n1 (stereo not drawn) + Cc1[nH]c2ccc(F)cc2c1-c1nc2c3cccnc3c3ncccc3c2[nH]1
5. O=C(c1cc(Cc2n[nH]c(=O)c3ccccc23)ccc1F)N1CCN(C(=O)C2CC2)CC1 + Cc1cnc(CNC(=O)c2c(=O)c3ccc(N4CCCN(C)CC4)nc3n3c2sc2ccccc23)cn1
6. O=C(NO)c1cnc(N2CCN(S(=O)(=O)c3ccc4ccccc4c3)CC2)nc1 + Cc1[nH]c2ccc(F)cc2c1-c1nc2c3cccnc3c3ncccc3c2[nH]1
7. O=C(c1cc(Cc2n[nH]c(=O)c3ccccc23)ccc1F)N1CCN(C(=O)C2CC2)CC1 + Cc1[nH]c2ccc(F)cc2c1-c1nc2c3cccnc3c3ncccc3c2[nH]1
8. CCCS(=O)(=O)Nc1ccc(F)c(C(=O)c2c[nH]c3ncc(-c4ccc(Cl)cc4)cc23)c1F + CN(C)c1ccc(Nc2c3ccc(NC(=O)CCN4CCCC4)cc3nc3cc(NC(=O)CCN4CCCC4)ccc23)cc1

Output line:
1. 92.6
2. 90.7
3. 107
4. 96.3
5. 52.8
6. 48.2
7. 80.2
8. 122
